Parameter: inhibition. Scope: all listed entries.
- EXPERIMENT SUMMARY: endothelial E-selectin expression blockers – imaging, HUVEC, immunofluorescence, MLSMR starter and 10KST1 sets, primary screen (AID 487);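 further: signal is fraction of cell area covered by stained E-selectin grains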
- CONDITION SET: HUVEC TNFalpha-induced E-selectin immunofluorescence imaging, at 2 µM; stronger effect = higher value
Calls of active or inactive are those of the source.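 How the source made its calls: active means visually confirmed hit in the image check and inhibition above 20%; inconclusive means visually confirmed hit but inhibition not above 20%; inactive means no visual hit in the image check.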

Illustrative cases are given below, each with its answer.
Cc1cccc(CC2CC(=O)N(c3ccccc3)C2=O)c1 (stereo unspecified); 11.6% (inactive)
CC(=O)C1=C(C)NC(SCSc2ccccc2)=C(C#N)C1c1cccnc1 (stereo unspecified); -33% (inactive)
NC(=O)c1cccc2c1C(=O)N(C1CCCCC1)C2; -26.1% (inactive)
COCC(=O)Nc1cc(OC)ccc1OC; -28.5% (inactive)
Cc1ccc2[nH]c(=O)c3cc(C(=O)NCCN4CCN(C)CC4)sc3c2c1; -14.1% (inactive)

Here's the next entry for you.
Query :: Can you share its inhibition? I mean this compound: `COc1ccc(S(=O)(=O)Nc2ccc(F)c(F)c2)cc1Cl`
Result :: -8.3% (inactive)
